Recorded values, source PubChem BioAssay.

test: inhibition of PAO1 biofilm formation – strain PAO1, LB-PBS medium, absorbance 600 nm, primary screen (AID 1176); further: test concentration not given here; conditions: P. aeruginosa PAO1 growth/biofilm, A600, 12 h; higher = more signal
Outcome: Criterion met for z-score of at least -0.4; Criterion not met for anything lower.

Determine whether this compound has z-score no lower than -0.4: CC(c1ccccc1)C(O)C1C=CC2C(=O)N(C)C(=O)C2N1NC(=O)OC(C)(C)C (configuration not stated) Criterion met

Determine whether this compound has z-score no lower than -0.4: COc1cc(OC)c(C(O)C2C=CC3C(=O)NC(=O)C3N2Nc2ccccn2)cc1Br (configuration not stated) Criterion met

Determine whether this compound has z-score no lower than -0.4: CC1CC/C=C\[C@H]2OC34C=CCN(Cc5ccccc5)C(=O)[C@H]3N(C(C)CO)C(=O)[C@@H]4C2C(=O)O1 (some centres not stated) Criterion not met

Determine whether this compound has z-score no lower than -0.4: C[C@H]1C2[C@H](Cc3ccccc3)NC(=O)[C@]23C(=O)NCC(=O)N2CCC[C@H]2C(=O)NC/C=C/CCC/C=C/C3[C@@H]2O[C@]12C (some centres not stated) Criterion not met

Determine whether this compound has z-score no lower than -0.4: `COC(=O)[C@@]1(Cc2ccccc2)[C@H]2c3cc(C(=O)N4CCCC4)n(Cc4ccc(O)c(OC)c4)c3C[C@H]2CN1C(=O)c1ccccc1` Criterion met

Determine whether this compound has z-score no lower than -0.4: `C=CCN1C(=O)[C@]2(Cc3ccccc3)N=C(c3ccc(OCCCO)cc3)O[C@@H]2c2ccccc21` Criterion met

Determine whether this compound has z-score no lower than -0.4: `C=C(CCCC)/C(=C/C[C@H](OC(=O)c1ccncc1)c1ccc(OCCO)cc1)c1cc(C(=O)OC)ccc1OC` Criterion not met

Determine whether this compound has z-score no lower than -0.4: `CCCCC(=C=CC[C@H](O)c1cccc(OCCO)c1)C[C@H](O)c1ccccn1` Criterion met

Determine whether this compound has z-score no lower than -0.4: `C#CCN1[C@@H](Cc2ccc(O)cc2)C(=O)O[C@H](Cc2ccccc2)[C@@H]1/C=C/C1CC1` Criterion met

Determine whether this compound has z-score no lower than -0.4: `CC[C@@H]1C=C(C(=O)O)[C@H](c2ccc(C)cc2)N1S(=O)(=O)c1ccc(C)cc1` Criterion not met

Determine whether this compound has z-score no lower than -0.4: `COC(=O)C[C@H]1O[C@@H](CCc2ccccc2)[C@@H](C)[C@@H]1[Si](C)(C)c1ccc(OC)cc1` Criterion not met

Determine whether this compound has z-score no lower than -0.4: `COc1ccc(CCNC(=O)[C@@]2(c3ccc([N+](=O)[O-])cc3)CC(=O)N(CC34CC5CC(CC(C5)C3)C4)[C@@H]2c2ccc(CO)cc2I)cc1` Criterion met

Determine whether this compound has z-score no lower than -0.4: `O=C(CS)NCCCCCNC(=O)[C@H]1C[C@H]2C(=O)NCC(=O)N2[C@H]1c1cccc(OCCO)c1` Criterion not met

Determine whether this compound has z-score no lower than -0.4: `CN(C)CCCCCCNC(=O)[C@@H]1C[C@@H]2C(=O)N[C@@H](CCCC[N+](C)(C)C)C(=O)N2[C@@H]1c1ccc(O)cc1` Criterion met

Determine whether this compound has z-score no lower than -0.4: `CC(C)[Si](C#CCCCC#N)(O[C@H](c1ccccc1)c1cn(Cc2cccc(Cl)c2)nn1)C(C)C` Criterion met

Determine whether this compound has z-score no lower than -0.4: OCC1C=C(/C=C/c2ccccc2)CN1Cc1ccccc1Br (configuration not stated) Criterion met

Determine whether this compound has z-score no lower than -0.4: OCCCC1=CC(C2CC2)N(Cc2cccc(OC(F)(F)F)c2)CC1 (configuration not stated) Criterion not met
